Value source: the supplement of paper PMC7877785

Assay: self-splicing fitness, log relative to wild type (ln ratio); higher = more splicing; Tetrahymena group I intron in knt gene, E. coli kanamycin selection, DiMSum; sequences stand for … in CUCUCU…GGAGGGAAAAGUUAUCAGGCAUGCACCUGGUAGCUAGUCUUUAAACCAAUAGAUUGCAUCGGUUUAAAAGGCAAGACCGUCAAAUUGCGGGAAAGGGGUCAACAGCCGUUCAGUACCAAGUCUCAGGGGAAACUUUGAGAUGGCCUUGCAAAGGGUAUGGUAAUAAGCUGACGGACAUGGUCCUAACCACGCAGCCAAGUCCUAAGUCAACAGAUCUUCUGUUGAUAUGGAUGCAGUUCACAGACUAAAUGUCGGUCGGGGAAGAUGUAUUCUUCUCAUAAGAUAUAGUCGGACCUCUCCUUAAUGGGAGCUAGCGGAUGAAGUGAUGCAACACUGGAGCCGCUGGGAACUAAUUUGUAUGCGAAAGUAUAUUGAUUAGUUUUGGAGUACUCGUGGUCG;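 further: selection with 25 µg/mL kanamycin versus none on LB agar overnight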
Conditions: 37 °C
A collection of sequences and their measured self-splicing fitness (ln)
Number, no unit, nothing else.

Record excerpt, results attached:
CGCAAGCAAUAUUACGACUC -0.869
GUGUAGCAAUAUUACGUAUG -2.78
CCUGAGCAAUAUUACGACUG -1.25

Query: self-splicing fitness (ln); subject: "AUAGAGCAAUAUUACGUAUU"
-1.1

----------
Assay: self-splicing fitness, log relative to wild type (ln ratio); higher = more splicing; Tetrahymena group I intron in knt gene, E. coli kanamycin selection, DiMSum; sequences stand for … in CUCUCU…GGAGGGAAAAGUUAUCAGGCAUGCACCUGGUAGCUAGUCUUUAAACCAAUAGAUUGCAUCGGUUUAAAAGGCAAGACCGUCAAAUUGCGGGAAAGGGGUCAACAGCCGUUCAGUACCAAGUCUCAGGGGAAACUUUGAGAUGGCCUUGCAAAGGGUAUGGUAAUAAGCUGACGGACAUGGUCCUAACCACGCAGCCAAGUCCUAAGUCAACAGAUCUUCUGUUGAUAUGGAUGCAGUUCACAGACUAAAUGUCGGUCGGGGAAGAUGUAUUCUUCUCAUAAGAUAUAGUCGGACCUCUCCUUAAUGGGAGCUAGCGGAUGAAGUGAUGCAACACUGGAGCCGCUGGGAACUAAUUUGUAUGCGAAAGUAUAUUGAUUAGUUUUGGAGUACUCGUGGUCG
Conditions: 30 °C
# label = Condition met if self-splicing fitness (ln) >= -2 else Condition not met

AUUAAGCAAUAUUACGGUAC Condition not met
AGCCAGCAAUAUUACGCCCU Condition met

Given the entry "UCGUAGCAAUAUUACGAUCC" , answer whether its self-splicing fitness (ln) meets or surpasses -2.
Condition not met

Given the entry "CGUAAGCAAUAUUACGACGA" , answer whether its self-splicing fitness (ln) meets or surpasses -2.
Condition met

Given the entry "GUCGAGCAAUAUUACGUUGC" , answer whether its self-splicing fitness (ln) meets or surpasses -2.
Condition not met

Given the entry "ACCGAGCAAUAUUACGCUAC" , answer whether its self-splicing fitness (ln) meets or surpasses -2.
Condition not met

Given the entry "AUGAAGCAAUAUUACGCGAU" , answer whether its self-splicing fitness (ln) meets or surpasses -2.
Condition not met

Given the entry "AGUAAGCAAUAUUACGACGC" , answer whether its self-splicing fitness (ln) meets or surpasses -2.
Condition met
